assay: protein stability index of a GFP-peptide fusion (GPS, HEK-293T) (PSI 1-6); higher = more stable; conditions: treatment: DMSO; c terminus: a fixed tail appended;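 further: 24-mer peptide tiles fused after GFP, lentivirally expressed, FACS-sorted into six equal bins by GFP/DsRed ratio, decoded by Illumina sequencing, PSI is the read-weighted mean bin number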
Hi all, reminder that labels come from protein stability index, split as lower segment (below 3), middle segment (3 to below 4), upper segment (4 or more)

Completed entries (count: 5):
EAACNDVDRWPAPVPGKTLHLPIM [DENND6A] : middle segment
GRLLFAGYNDYTINVWDVLKGSRV [GNB5] : lower segment
LHQTVERIHVGKKYGDIPRGIFVV [LSM1] : lower segment
GDDQPSETDHLSMEEEDPMPRQIS [TPRG1] : upper segment
FNKGIYDIHVGLRGVPLLEWETEV [CLCN6] : lower segment

Proceed to the following item.
Textbook exercise: identify the category of the sequence given here, DHELGRCTDSVVKYELMRPSNKAP [EHMT1] , according to its measured value. upper segment

----------
assay: protein stability index of a GFP-peptide fusion (GPS, HEK-293T) (PSI 1-6); higher = more stable; conditions: treatment: MLN4924 1 uM, 8 h; c terminus: a fixed tail appended
Note that class boundaries on protein stability index are low (below 3), mid (3 to below 4), high (4 or more)

ELCCVAELDNPMQQKWTKPARAGS [C2CD2L] : mid
ETHLRHMKALLGSYAHSVEDTHVQ [FCHO1] : mid
FRNCGACVTLMQGHEGSVSSCHFA [WDR88] : low
TGSPARLSLRQTGSPGMIYSTRYG [KCNAB2] : mid
RFFASSSLHHTSECTQMDHLGCMH [ALDH8A1] : low
GIFEESFIEERRQGLEQFINKIAG [SNX12] : low
PVLKRSSESMENINSGYETRRKKG [KMT2E] : high
DQDYLHSLGKARTAQVQKDARIGE [FLOT1] : high
NHLLESMPLREGSSFQDLLGDALA [HES6] : mid
GIDIMKTSFPGRGSIPEFFHIMKR [AASDHPPT] : low

Form field 'band' for PDHQVPYGHDYPRAAYQQVIQPAL [TRAF3IP2] mid

// repeat for KENSHQVKEELSQKFDTLYAILDE [TRIM63] and report high

Queued: EMDMVVFRPEMKKHSWCLKRKNPP [N4BP2L1] mid

One more sequence: GATLGQTTSEEAVGGATLAQTTSE [HDAC6] high

----------
experiment: protein stability index of a GFP-peptide fusion (GPS, HEK-293T) (PSI 1-6); higher = more stable; settings: treatment: MLN4924 1 uM, 8 h; c terminus: a fixed tail appended
Reported protein stability index values follow for various sequences
Respond with the number and no other words.

Which protein stability index reading was recorded for the sequence QNVARIPEFELLWKDIIHNPQALS [INTS3] ? 2.53

Follow-up item: TSGVVFTGLMVSLLCLLHFSIVSV [RTN2] 3.07

What would you report for MASSAASSEHFEKLHEIFRGLHED [VTI1B] ? 4.28

Check RLPNRQLISCSEDGSVRIWELREK [WDR41] too. 3.31

Then YNVSPLSWNVAVKFLMARKFDVLR [PTPN9] ? 2.46

Another sequence: VDLDPTDGKLFPSDGFRDCKKGDP [ELF3] 5.2

Would you mind doing SVKIIFKLPNDSRVERRFHFSQSL [FAF2] as well? 2.76

Same question, PRTSQSEETRVWHRRDGKWQNVHF [CAMK2B] this time 3.39

// repeat for KCPWMEGGEMSPQVETSIEGTIPF [INTS4] and report 4.03

Try the sequence FLMGRVLYFHHYFPAMLFSSMLTG [POMT2] 3.37

Request: HVPELEMLGRLGYLNHVRAASPQD [MNAT1] 3.45

Next: EIPKNCVVAAVGKELIIFRLVAPT [WDR41] 2.28

----------
Overview of recorded protein stability index for various sequences
test: protein stability index of a GFP-peptide fusion (GPS, HEK-293T) (PSI 1-6); higher = more stable; conditions: treatment: DMSO; c terminus: a fixed tail appended
// keep it numeric: no unit symbol after the value

QLKESKSKIDALSSEKLNLQKDLE [CEP70] : 5.03

Record request: protein stability index value, item ELGLLIFFLFIGVILFSSAVYFAE [KCNA1] 2.04

Consider next the sequence EPLQALLERASATLQDLVFDECGI [PRAME] in the same way. 2.25

Next record, please: LQAPVPPDSVPSLQNMGLLLDKLA [PBXIP1] 3.11

Here is the next sequence: AQTIPTKDRLEGLLAFKEKRPPRY [AUH] 3.73

# iterate: MVILISIVIFCLETLPELKDDKDF [KCNA1] 3.03

Moving on to the next sequence: ALPSSAPSGPPPPPPSVLGVGPVA [WASL] 4.54

----------
test: protein stability index of a GFP-peptide fusion (GPS, HEK-293T) (PSI 1-6); higher = more stable; conditions: treatment: MLN4924 1 uM, 8 h; c terminus: a fixed tail appended
Answer No if protein stability index is under 3, and Yes if it is 3 or more.

PRSPECRMIPGQPPASARRLSVPR [IRX6] : Yes

--- query ---
Is reported protein stability index greater than or equal to 3 here: MSIHIVALGNEGDTFHQDNQPSGL [RHOBTB3] No

----------
experiment: protein stability index of a GFP-peptide fusion (GPS, HEK-293T) (PSI 1-6); higher = more stable; details: treatment: DMSO; c terminus: a fixed tail appended
protein stability index overview
Reply: number alone, nothing else.

GTAGDSMSYHSGSVFSARDRDPNS [TNXB] : 4.66
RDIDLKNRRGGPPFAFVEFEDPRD [SRSF1] : 4.03
GDGVPPRSLQDGTREGFGHSTSLK [LCOR] : 5.08
QYQANKVTHTLTMRQRISRVEESA [PPEF2] : 3.65
WCRDRLLGHREPSAHPVEVFSFDL [TMEM175] : 2.39

What protein stability index value was documented for this sequence, PVTPQVGEGRKSRKFSRLSCLRRR [SMG5] ? 4.36

----------
assay: protein stability index of a GFP-peptide fusion (GPS, HEK-293T) (PSI 1-6); higher = more stable; details: treatment: MLN4924 1 uM, 8 h; c terminus: a fixed tail appended
Classify by measured protein stability index: Condition met if it is equal to or exceeds 3, Condition not met if it is smaller.

LQGSLFGLAGLLPASYTAPIMSGQ [SLC29A1] : Condition not met

Does the reported protein stability index for KINKIRWLPQQNAAYFLLSTNDKT [PPP2R2B] fall at or above the 3 mark? Condition not met

Further, for AAIGVTTSPVLPSLIQLLGRNFIL [HACD3] ? Condition not met

Next record, please: SSLDLSYYPTSSSTSFMSSSSSSS [EMD] Condition met

----------
assay: protein stability index of a GFP-peptide fusion (GPS, HEK-293T) (PSI 1-6); higher = more stable; details: treatment: DMSO; c terminus: a fixed tail appended
measured_parameter: protein stability index
Enter the number alone.

MGSQGSPVKSYDYLLKFLLVGDSD [RAB40C] : 2.29

Pending sequence:
Can you share its protein stability index? I mean this sequence: ASSASAFLTAPLLEFLLALYFLFA [CMTM3] 2.34

----------
experiment: protein stability index of a GFP-peptide fusion (GPS, HEK-293T) (PSI 1-6); higher = more stable; details: treatment: MLN4924 1 uM, 8 h; c terminus: a fixed tail appended
Would you mind classing the entries by protein stability index? Ranges: low (below 3), mid (3 to below 5), high (5 or more)

SLKEDLTQHKFICEQCGKCKCGEC [SPRY1] : high
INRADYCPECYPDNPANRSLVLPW [TOR1AIP2] : low
FLPVDTSNNNGRIKQLRSGGTPIR [PTPRD] : mid

Which class holds PPRGPLAKHRLVPPAQGRVSRRLS [TRIM9] ? mid

Cool, now RRLPLAFRDATSAPLRKLSVDLIK [DYRK1B] low

Further, for DQERIKVERKRLRNRLAATKCRKR [JUNB] ? mid

----------
experiment: protein stability index of a GFP-peptide fusion (GPS, HEK-293T) (PSI 1-6); higher = more stable; conditions: treatment: DMSO; c terminus: a fixed tail appended
Kind request: treat 3 as inclusive, so protein stability index at 3 or higher is rule met, anything lower is rule not met.

Please review the entries below; each comes with its answer.
GKGEGPIWLDNLHCTGNEATLAAC [LOXL2] : rule met
EEVDVTSVDPIAAFCSSDEELEDS [RBBP5] : rule met
KGHERTVQYLQHLGTENLHLIFSY [VPS39] : rule not met
LDFTHPKARDWFQGHLRRLRSRYS [MYORG] : rule not met
DCPKIVEPHGKMFNEQTWEVSQQD [ZSCAN9] : rule met
TDRKLDDGDDKVFRRAPSWRKRFR [PPFIA4] : rule met
LGLAGRCLTLTPRPATEAELLTCH [HDAC6] : rule not met
KMTDLLSRRLQLGSEENGRYFSLS [PCDHGC5] : rule not met

Check the entry SFGACLREETPRMPSWASARDRQP [ELOA2] : does protein stability index equal or exceed 3? rule met

// query: ESPSLTSTPVCSQKVVVTTPLHRD [MYBL2] rule met

Same question, ADLSSGSSGEDDDFKSCPQGPQGR [PWWP2B] this time rule met

And then QVVSQGWKYFKGNFYYFSLIPKTW [CD207] , what is it? rule not met

Next: GIAVWNMDVSREEAPQWLESDSCQ [WDFY1] rule met

// repeat for IQSLTCEVDGLRGTNEALLRQLRE [PRPH] and report rule met
